- Test system: L929
- TEST: Induction of nuclear fragmentation in mouse L929 cells at cytotoxic IC50 by DAPI staining based microscopic method
- Format: functional, cell-based
Activity calls are given as the source filed them. No cut-off for these calls is given here.
PROPERTY_LABEL: Activity

Sample records with Activity:
[[record]]
smiles_notation = "CC(=O)CC1=C(C)C=C2C[C@@H](C)[C@@H](O)[C@@H](C)[C@@H]2[C@H]1/C=C(C)/C=C(C)/C=C/C(=O)O"
tested_on = "L929"
meas_value = "Active"

[[record]]
smiles_notation = "CC(=O)CC1=C(C)C=C2C[C@@H](C)C(=O)[C@@H](C)[C@@H]2[C@H]1/C=C(C)/C=C(C)\\C=C\\C(=O)O"
tested_on = "L929"
meas_value = "Active"

[[record]]
smiles_notation = "COC(=O)/C=C/C(C)=C/C(C)=C/[C@H]1C(CC(C)=O)=C(C)C=C2C[C@@H](C)C(=O)[C@@H](C)[C@@H]21"
tested_on = "L929"
meas_value = "Active"

[[record]]
smiles_notation = "CC(=O)CC1=C(C)C=C2C[C@@H](C)C(=O)[C@@H](C)[C@@H]2[C@H]1/C=C(C)/C=C(C)/C=C/C(=O)O"
tested_on = "L929"
meas_value = "Active"

[[record]]
smiles_notation = "CC1=C(C[C@H](C)O)[C@H](/C=C(C)/C=C(C)/C=C/C(=O)O)[C@@H]2C(=C1)C[C@@H](C)C(=O)[C@H]2C"
tested_on = "L929"
meas_value = "Active"


Consider the compound COC(=O)/C=C/C(C)=C/C(C)=C/[C@H]1C(C[C@H](C)O)=C(C)C=C2C[C@@H](C)C(=O)[C@@H](C)[C@@H]21 and give its recorded Activity. Active

Each recorded value in this set is attributed to ChEMBL document CHEMBL4118027.
